- target_under_test: pooled human IgG
# Enzyme Activity Endpoint Assay: Fc listing for each entry below
Please respond with the number in ng/µL and leave the unit unwritten.

* PRT-40 (protein) MANQEIRYSEVTPYHVTSVWTKGVTPPANFTQGEDVFHAPYVANQGWYDITKTFNGKDDLLCGAATAGNMLHWWFDQNKDQIKRYLEEHPEKQKINFNGEQMFDVKEAIDTKNHQLDSKLFEYFKEKAFPYLSTKHLGVFPDHVLDMFINGYRLSLTNHGPTPVKEGSKDPRGGIFDAVFTRGDQSKLLTSRHDFKEKNLKEISDLIKKELTEGKALGLSHTYANVRINHVINLWGADFDSNGNLKAIYVTDSDSNASIGMKKYFVGVNSAGKVAISAKEIKEDNIGAQVLGLFTLSTGQDSWNQTN | 108

Attention now shifts to the item below.
Enzyme Activity Endpoint Assay: Fc measured on PRT-49 (protein) MANQEIRYSEVTPYHVTSVWTKGVTPPANFTQGEDVFHAPYVANQGWYDITKTFNGKDDLLCGAATAGNMLHWWFDQNKDYIDRYLEEHPEKAKINFNGEQMFDVKEAIDTKNDQTDSKLFEYFKEKAFPYLSTKHLGVFPDHVIDMFINGYRLSLTNHGPTPVKEGSKDPRGGFFDDVFGRGDQSKLLTSRHDFKEKNLKEISDLIKKELTEGKALGLSHTYANVRINHVINLWGADFDSNGNLKAIYVTDSDSNASVGMKKYFVGVNSAGKVAISAKEIKEDNIGAQVLGLFTLSTGQDSWNQTN = 96
